Experiment: Microsomal stability, human liver microsomes (predicted hepatic clearance)
Settings: predicted from in vitro microsomal stability data
Give 1.0 when the value for Predicted Hepatic Clearance (Pred. Cl.) is at least 4 mL/min/kg. Give 0.0 when it is less.

input: Please indicate if the recorded Predicted Hepatic Clearance (Pred. Cl.) for N#Cc1ccc(COc2cccc(-c3cc(F)c(Cc4nc5ccc(C(=O)O)cc5n4[C@H]4CCC(F)(F)C4)cc3F)n2)c(F)c1 meets or exceeds 4 mL/min/kg.
output: 1.0

input: Please indicate if the recorded Predicted Hepatic Clearance (Pred. Cl.) for O=C(O)c1ccc2nc(Cc3ccc(-c4cccc(OCc5ccc(C(F)(F)F)nc5)n4)c(F)c3)n(C[C@@H]3CCO3)c2c1 meets or exceeds 4 mL/min/kg.
output: 1.0

input: Please indicate if the recorded Predicted Hepatic Clearance (Pred. Cl.) for O=C(O)c1cc(F)c2nc(Cc3cc(F)c(-c4nc(OCc5ccc(C(F)(F)F)cc5F)ncc4F)cc3F)n(C[C@@H]3CCO3)c2c1 meets or exceeds 4 mL/min/kg.
output: 0.0

input: Please indicate if the recorded Predicted Hepatic Clearance (Pred. Cl.) for COCCn1c(Cc2ccc(-c3cccc(OCc4ccc(C#N)cc4F)n3)cc2F)nc2ccc(C(=O)O)cc21 meets or exceeds 4 mL/min/kg.
output: 0.0

---

Target: GLP-1R (Homo sapiens)
Sequence (P43220 24-463): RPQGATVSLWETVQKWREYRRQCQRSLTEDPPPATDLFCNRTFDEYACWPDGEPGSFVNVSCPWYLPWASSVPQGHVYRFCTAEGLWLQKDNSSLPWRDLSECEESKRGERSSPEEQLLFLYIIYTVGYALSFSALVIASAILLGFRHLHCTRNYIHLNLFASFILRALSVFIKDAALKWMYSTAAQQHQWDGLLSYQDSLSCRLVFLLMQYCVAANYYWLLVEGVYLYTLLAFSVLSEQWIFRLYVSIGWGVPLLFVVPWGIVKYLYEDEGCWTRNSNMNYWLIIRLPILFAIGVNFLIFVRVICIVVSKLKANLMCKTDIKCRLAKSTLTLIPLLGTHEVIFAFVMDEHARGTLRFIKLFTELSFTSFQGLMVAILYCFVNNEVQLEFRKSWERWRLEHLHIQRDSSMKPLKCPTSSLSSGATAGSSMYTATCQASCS
Test: GLP-1R activation: cAMP increase in CHO cells stably expressing GLP-1R
Type: cell-based
Conditions: read-out: EC50
Quantity: EC50 (nM)
Supply the numeric figure in nM, leaving out any unit text.

# example entries with known answers
CO[C@@H]1CN(C(C)=O)C[C@H]1n1c(Cc2cc(F)c(-c3cccc(OCc4ccc(C#N)cc4F)n3)cc2F)nc2ccc(C(=O)O)cc21 [Example 920] = 58.5
COC(=O)N1CCC[C@@H]1Cn1c(Cc2cc(F)c(-c3cccc(OCc4ccc(C#N)cc4F)n3)cc2F)nc2ccc(C(=O)O)cc21 [Example 589] = 5.46

input: Using the record for CC(=O)N1CC[C@@H]1Cn1c(Cc2cc(F)c(-c3cccc(OCc4ccc(C#N)cc4F)n3)cc2F)nc2ccc(C(=O)O)cc21 [Example 925] , state its measured EC50.
output: 3.63

---

Molecular target: GLP-1R (Homo sapiens)
Experiment: GLP-1R activation: cAMP increase in CHO cells stably expressing GLP-1R
Format: cell-based
Settings: cAMP increase, CHO cells stably expressing GLP-1R, 10 point dose response, 30 minutes incubation; read-out: EC50
Overview of recorded EC50 for various compounds
Supply the numeric figure in µM, leaving out any unit text.

# example entries with known answers
COCCn1c(Cc2ccc(-c3cccc(OCc4ccc(C#N)cc4F)n3)cn2)nc2ccc(C(=O)NS(=O)(=O)C3CC3)cc21 [Example 54] = 0.806
COCCn1c(Cc2ccc(-c3cccc(OCC(=O)c4ccc(OC)cc4)n3)cc2F)nc2ccc(C(=O)O)cc21 [Example 215] = 0.0627

input: Answer with EC50 of COCCn1c(Cc2cc(F)c(-c3cccc(OCc4ccc(C#N)cc4F)n3)cc2Cl)nc2ccc(C(=O)O)cc21 [Example 304] measured for GLP-1R (Homo sapiens).
output: 0.0005

input: Answer with EC50 of COCCn1c(Cc2ccc(-c3cccc(OCc4cccc(C(C)(C)C#N)c4)n3)cc2F)nc2ccc(C(=O)O)cc21 [Example 142] measured for GLP-1R (Homo sapiens).
output: 0.162

input: Answer with EC50 of COCCn1c(Cc2ccc(-c3cccc(OCc4cc(F)c(C#N)cc4F)n3)cc2F)nc2ccc(C(=O)O)cc21 [Example 262] measured for GLP-1R (Homo sapiens).
output: 0.0286

input: Answer with EC50 of N#Cc1ccc(COc2ccnc(-c3cc(F)c(Cc4nc5c(F)cc(C(=O)O)cc5n4C[C@@H]4CCO4)cc3F)n2)c(F)c1 [Example 778] measured for GLP-1R (Homo sapiens).
output: 0.00013

input: Answer with EC50 of N#CCC1(Cn2c(Cc3ccc(-c4ncc(F)c(OCc5ccc(C#N)cc5F)n4)c(F)c3)nc3ccc(C(=O)O)cc32)CC1 [Example 127] measured for GLP-1R (Homo sapiens).
output: 0.00034

input: Answer with EC50 of CC1(C)CC(Cn2c(Cc3ccc(-c4cccc(OCc5ccc(C#N)cc5F)n4)cc3F)nc3ccc(C(=O)O)cc32)O1 (single isomer, unassigned) [Example 904] measured for GLP-1R (Homo sapiens).
output: 0.311

input: Answer with EC50 of COCCn1c(Cc2ccc(-c3cccc(OCc4ccc(C#N)cc4F)n3)cc2Br)nc2ccc(C(=O)O)cc21 [Example 239] measured for GLP-1R (Homo sapiens).
output: 0.00749

input: Answer with EC50 of O=C(O)c1ccc2nc(Cc3cc(F)c(-c4ccnc(OCc5ccc(Cl)cc5F)n4)cc3F)n(CC3(CF)CC3)c2n1 [Example 120] measured for GLP-1R (Homo sapiens).
output: 0.00124

input: Answer with EC50 of COCCn1c(Cc2cc(F)c(-c3cccc(OCc4ccc(Br)c5c4COC5)n3)cc2F)nc2ccc(C(=O)O)cc21 [Example 874] measured for GLP-1R (Homo sapiens).
output: 0.0347

input: Answer with EC50 of COCCn1c(Cc2c(F)cc(-c3csnc3OCc3ccc(C#N)cc3F)cc2F)nc2ccc(C(=O)O)cc21 [Example 76] measured for GLP-1R (Homo sapiens).
output: 0.0223

input: Answer with EC50 of N#Cc1ccc(COc2cccc(-c3cc(F)c(Cc4nc5ccc(C(=O)O)cc5n4CC4CCCCO4)cc3F)n2)c(F)c1 (centres unmarked) [Example 640] measured for GLP-1R (Homo sapiens).
output: 0.0166

input: Answer with EC50 of COCCn1c(Cc2c(F)cc(-c3cccc(OCc4ccc(C#N)cc4F)n3)cc2F)nc2ccc(C(=O)O)cc21 [Example 39] measured for GLP-1R (Homo sapiens).
output: 0.00879
